B1: H2-Kb / Ed9 (parent complex)
chain 1: AQSVTQPDARVTVSEGASLQLRCKYSYFGTPYLFWYVQYPRQGLQLLLKYYPGDPVVQGVNGFEAEFSKSNSSFHLRKASVHWSDWAVYFCAVSITGGYKVVFGSGTRLLVSP
chain 2: DSGVVQSPRHIIKEKGGRSVLTCIPISGHSNVVWYQQTLGKELKFLIQHYEKVERDKGFLPSRFSVQQFDDYHSEMNMSALELEDSAMYFCASSPRQSDYTFGSGTRLLVI
chain 3: not shown
chain 4: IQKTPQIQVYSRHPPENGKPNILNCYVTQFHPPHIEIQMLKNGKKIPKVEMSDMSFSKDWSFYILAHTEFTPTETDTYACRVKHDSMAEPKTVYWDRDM
chain 5: SIINFEKL

Variants of: B1
testSummary: % of reporter cells activated (NFAT-GFP), raw; note: test concentration or dose not given here
assayEndpoint: ratio to parent

Field: example entries. Status: answers known.
variantString	ratio to parent
chain 5 K7G	0.473
chain 5 S1L	0.0324
chain 5 I2F	1.13

[a] chain 5 F5R
[b] chain 5 E6K
Query :: For a and b , which recorded ratio to parent is lower? Please identify the chosen entry by its label.
Result :: b
(b: 0.795, a: 1.31)
